# target under test: T1, B7-H3, native protein on the cell surface of A498 and SK-MES-1 cells (UniProt Q5ZPR3 29-534, limits assumed)
# T1 sequence (looked up): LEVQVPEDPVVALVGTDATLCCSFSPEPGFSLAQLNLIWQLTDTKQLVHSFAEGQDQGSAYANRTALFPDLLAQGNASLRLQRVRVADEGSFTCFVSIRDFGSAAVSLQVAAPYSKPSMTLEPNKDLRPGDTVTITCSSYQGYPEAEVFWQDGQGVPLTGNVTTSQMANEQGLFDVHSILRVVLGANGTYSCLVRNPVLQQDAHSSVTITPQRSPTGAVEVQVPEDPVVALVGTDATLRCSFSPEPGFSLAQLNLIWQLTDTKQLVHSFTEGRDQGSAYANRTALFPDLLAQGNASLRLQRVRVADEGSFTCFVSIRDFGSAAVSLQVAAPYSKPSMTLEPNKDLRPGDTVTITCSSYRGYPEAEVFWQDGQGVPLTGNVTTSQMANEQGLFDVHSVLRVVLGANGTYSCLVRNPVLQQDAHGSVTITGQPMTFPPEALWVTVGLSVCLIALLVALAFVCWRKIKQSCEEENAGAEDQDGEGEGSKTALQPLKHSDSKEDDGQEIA
# assay procedure: cell-based or functional assay
Reported ADCC (reporter) EC50, SK-MES-1 target cells values for the following binders.
observable: ADCC (reporter) EC50, SK-MES-1 target cells (nM)

• SCT-Da182 (antibody, V domains shown) VH: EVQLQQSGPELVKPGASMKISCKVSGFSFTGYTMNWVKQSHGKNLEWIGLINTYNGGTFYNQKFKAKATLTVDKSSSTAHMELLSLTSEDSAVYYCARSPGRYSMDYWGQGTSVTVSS VL: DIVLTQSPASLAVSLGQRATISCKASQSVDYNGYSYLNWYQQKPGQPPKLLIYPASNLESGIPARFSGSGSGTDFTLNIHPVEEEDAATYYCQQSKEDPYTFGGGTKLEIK = 4.6
• SCT-Da192 (antibody, V domains shown) VH: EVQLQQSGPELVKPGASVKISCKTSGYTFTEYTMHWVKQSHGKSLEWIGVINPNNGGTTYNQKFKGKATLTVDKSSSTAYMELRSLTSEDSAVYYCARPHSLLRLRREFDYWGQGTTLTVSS VL: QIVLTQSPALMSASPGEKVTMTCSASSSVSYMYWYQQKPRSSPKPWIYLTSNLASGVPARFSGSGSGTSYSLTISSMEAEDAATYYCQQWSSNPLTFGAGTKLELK = 0.9
• SCT-Da250 (antibody, V domains shown) VH: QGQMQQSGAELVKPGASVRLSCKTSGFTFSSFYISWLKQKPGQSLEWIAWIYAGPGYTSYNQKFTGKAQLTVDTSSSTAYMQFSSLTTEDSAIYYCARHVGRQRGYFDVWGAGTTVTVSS VL: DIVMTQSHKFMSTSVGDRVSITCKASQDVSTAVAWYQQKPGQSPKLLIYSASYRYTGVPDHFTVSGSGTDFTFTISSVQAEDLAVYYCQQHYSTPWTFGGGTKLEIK = 2.4
• SCT-Da148 (antibody, V domains shown) VH: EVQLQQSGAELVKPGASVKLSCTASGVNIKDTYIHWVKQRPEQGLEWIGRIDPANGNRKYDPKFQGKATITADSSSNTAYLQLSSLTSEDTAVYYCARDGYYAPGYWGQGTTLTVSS VL: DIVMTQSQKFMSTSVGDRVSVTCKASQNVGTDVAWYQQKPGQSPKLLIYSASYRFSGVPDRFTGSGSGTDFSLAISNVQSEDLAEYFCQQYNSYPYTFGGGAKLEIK = 4.2
• SCT-Da333 (antibody, V domains shown) VH: QVQLQQSGPELVRPGVSVKISCKGSGYTFTDYAVHWVKQSHAKSLEWIGVINTYSGNTYYNLHFKGKATMTVDKSSSTAYMELARLTSEDSAIYYCARRRGSHRDAYFDYWGQGTTLTVSS VL: DIVMTQSHKFMSTSVGDRVSITCRASQDVSTAVAWYQQKPGQSPKLLIYSASYRYTGVPDRFTVSGSGTDFTFTISSVQAEDLAVYYCQQHYSTPWTFGGGTKLEIK = 32.8
